Below, each entry is listed alongside its reported MIC P. acnes.
Test system: Propionibacterium acnes ATCC 6919
Assay: MIC, agar dilution method NCCLS M11-A6, Brucella agar, anaerobic (Table 9, superscript c)
Type: cell-based
Details: ATCC 6919
Non-standard residues stand in square brackets, D forms with d. Residues, ends and D or L forms follow the SMILES beside them. *: point of attachment. Lauroyl = CCCCCCCCCCCC(=O)*
measured.endpoint: MIC P. acnes (c ug/mL)

- compound: "CCCCCCCCCCCC(=O)N[C@@H](CCCNC(=N)N)C(=O)N[C@@H](CO)C(=O)N[C@@H](CCCNC(=N)N)C(=O)N[C@@H](Cc1c[nH]c2ccccc12)C(=O)N[C@@H](CCCNC(=N)N)C(=O)N[C@@H](CC(=O)O)C(=O)N[C@@H](Cc1c[nH]c2ccccc12)C(=O)N[C@@H](C)C(=O)N[C@@H](CCCNC(=N)N)C(=O)N[C@@H](CC(N)=O)C(=O)N[C@@H](Cc1ccccc1)C(=O)N[C@@H](CCSC)C(=O)N[C@@H](CCCNC(=N)N)C(N)=O [Peptide 140, Lauryl-RSRWRDWARNFMR-NH2] (Lauroyl-RSRWRDWARNFMR-NH2)"
  system.tested: "Propionibacterium acnes ATCC 6919"
  reported.relation: "="
  value: 16
- compound: "CCCCCCCCCCCC(=O)NCCCC[C@H](NC(=O)[C@H](CCCNC(=N)N)NC(=O)[C@H](CC(C)C)NC(=O)[C@H](Cc1ccccc1)NC(=O)[C@H](CC(N)=O)NC(=O)[C@H](CCCNC(=N)N)NC(=O)[C@H](C)NC(=O)[C@@H](NC(=O)[C@H](CC(=O)O)NC(=O)[C@H](CCCNC(=N)N)NC(=O)[C@H](Cc1c[nH]c2ccccc12)NC(=O)[C@H](CCCNC(=N)N)NC(=O)[C@H](CO)NC(=O)[C@@H](N)CCCNC(=N)N)C(C)C)C(N)=O [Peptide 181, H2N-RSRWRDVARNFLRK(Lauryl)-NH2] (H-RSRWRDVARNFLRK(Lauroyl)-NH2)"
  system.tested: "Propionibacterium acnes ATCC 6919"
  reported.relation: "="
  value: 64
- compound: "CCCCCCCCCCCC(=O)N[C@@H](CCCNC(=N)N)C(=O)N[C@@H](CO)C(=O)N[C@@H](CCCNC(=N)N)C(=O)N[C@@H](Cc1c[nH]c2ccccc12)C(=O)N[C@@H](CCCNC(=N)N)C(=O)N[C@@H](CC(=O)O)C(=O)N[C@@H](Cc1c[nH]c2ccccc12)C(=O)N[C@@H](CO)C(=O)N[C@@H](CCCNC(=N)N)C(=O)N[C@@H](CC(N)=O)C(=O)N[C@@H](Cc1ccccc1)C(=O)N[C@@H](CCSC)C(=O)N[C@@H](CCCNC(=N)N)C(N)=O [Peptide 87, Lauryl-RSRWRDWSRNFMR-NH2] (Lauroyl-RSRWRDWSRNFMR-NH2)"
  system.tested: "Propionibacterium acnes ATCC 6919"
  reported.relation: ">"
  value: 64
- compound: "CCCCCCCCCCCC(=O)N[C@@H](CCCNC(=N)N)C(=O)N[C@H](CO)C(=O)N[C@@H](CCCNC(=N)N)C(=O)N[C@H](Cc1c[nH]c2ccccc12)C(=O)N[C@@H](CCCNC(=N)N)C(=O)N[C@H](CC(=O)O)C(=O)N[C@@H](C(=O)N[C@H](C)C(=O)N[C@@H](CCCNC(=N)N)C(=O)N[C@H](CC(N)=O)C(=O)N[C@H](Cc1ccccc1)C(=O)N[C@H](CCSC)C(=O)N[C@@H](CCCNC(=N)N)C(N)=O)C(C)C [Peptide 158, Lauryl-RsRwRdvaRnfmR-NH2] (Lauroyl-R[dS]R[dW]R[dD][dV][dA]R[dN][dF][dM]R-NH2)"
  system.tested: "Propionibacterium acnes ATCC 6919"
  reported.relation: "="
  value: 8

====

System: Propionibacterium acnes ATCC 6919
Assay: MIC, agar dilution method NCCLS M11-A6, Brucella agar, anaerobic (Table 9, superscript c)
Assay type: cell-based
Settings: ATCC 6919
Non-standard residues stand in square brackets, D forms with d. Residues, ends and D or L forms follow the SMILES beside them. *: point of attachment. Lauroyl = CCCCCCCCCCCC(=O)*; Decanoyl = CCCCCCCCCC(=O)*
As shown below, each of these compounds has a reported MIC P. acnes value.

- compound: "CCCCCCCCCCCC(=O)N[C@H](CCCNC(=N)N)C(=O)N[C@H](CO)C(=O)N[C@H](CCCNC(=N)N)C(=O)N[C@H](Cc1c[nH]c2ccccc12)C(=O)N[C@H](C)C(=O)N[C@H](CC(=O)O)C(=O)N[C@@H](C(=O)N[C@H](C)C(=O)N[C@H](CCCNC(=N)N)C(=O)N[C@H](CC(N)=O)C(=O)N[C@H](Cc1ccccc1)C(=O)N[C@H](CCSC)C(=O)N[C@H](CCCNC(=N)N)C(N)=O)C(C)C [Peptide 240, Lauryl-rsrwadvarnfmr-NH2] (Lauroyl-[dR][dS][dR][dW][dA][dD][dV][dA][dR][dN][dF][dM][dR]-NH2)"
  system.tested: "Propionibacterium acnes ATCC 6919"
  reported.relation: "="
  MIC P. acnes [c ug/mL]: 16
- compound: "CCCCCCCCCCCC(=O)N[C@@H](CO)C(=O)N[C@@H](CCCNC(=N)N)C(=O)N[C@@H](Cc1c[nH]c2ccccc12)C(=O)N[C@@H](CCCNC(=N)N)C(=O)N[C@@H](CC(=O)O)C(=O)N[C@H](C(=O)N[C@@H](C)C(N)=O)C(C)C [Peptide 104, Lauryl-SRWRDVA-NH2] (Lauroyl-SRWRDVA-NH2)"
  system.tested: "Propionibacterium acnes ATCC 6919"
  reported.relation: ">"
  MIC P. acnes [c ug/mL]: 64
- compound: "CCCCCCCCCCCC(=O)N[C@@H](Cc1c[nH]c2ccccc12)C(=O)N[C@@H](CCCNC(=N)N)C(=O)N[C@@H](CC(=O)O)C(=O)N[C@H](C(=O)N[C@@H](C)C(=O)N[C@@H](CCCNC(=N)N)C(=O)N[C@@H](CC(N)=O)C(N)=O)C(C)C [Peptide 106, Lauryl-WRDVARN-NH2] (Lauroyl-WRDVARN-NH2)"
  system.tested: "Propionibacterium acnes ATCC 6919"
  reported.relation: ">"
  MIC P. acnes [c ug/mL]: 64
- compound: "CCCCCCCCCC(=O)NCCCC[C@H](NC(=O)[C@H](CCCNC(=N)N)NC(=O)[C@H](CC(C)C)NC(=O)[C@H](Cc1ccccc1)NC(=O)[C@H](CC(N)=O)NC(=O)[C@H](CCCNC(=N)N)NC(=O)[C@H](C)NC(=O)[C@@H](NC(=O)[C@H](CC(=O)O)NC(=O)[C@H](CCCNC(=N)N)NC(=O)[C@H](Cc1c[nH]c2ccccc12)NC(=O)[C@H](CCCNC(=N)N)NC(=O)[C@H](CO)NC(=O)[C@@H](N)CCCNC(=N)N)C(C)C)C(N)=O [Peptide 180, H2N-RSRWRDVARNFLRK(Decanyl)-NH2] (H-RSRWRDVARNFLRK(Decanoyl)-NH2)"
  system.tested: "Propionibacterium acnes ATCC 6919"
  reported.relation: "="
  MIC P. acnes [c ug/mL]: 64
- compound: "CCCCCCCCCCCC(=O)N[C@@H](CCCNC(=N)N)C(=O)N[C@@H](CO)C(=O)N[C@@H](CCCNC(=N)N)C(=O)N[C@@H](Cc1c[nH]c2ccccc12)C(=O)N[C@@H](CCCNC(=N)N)C(=O)N[C@@H](CC(=O)O)C(=O)N[C@H](C(=O)N[C@@H](CC(C)C)C(=O)N[C@@H](CCCNC(=N)N)C(=O)N[C@@H](CC(N)=O)C(=O)N[C@@H](Cc1ccccc1)C(=O)N[C@@H](CCSC)C(=O)N[C@@H](CCCNC(=N)N)C(N)=O)C(C)C [Peptide 134, Lauryl-RSRWRDVLRNFMR-NH2] (Lauroyl-RSRWRDVLRNFMR-NH2)"
  system.tested: "Propionibacterium acnes ATCC 6919"
  reported.relation: "="
  MIC P. acnes [c ug/mL]: 2

====

Tested on: Pseudomonas aeruginosa ATCC 27853
Experiment: MIC, NCCLS M7-A6 broth microdilution (Table 9, no superscript)
Type: cell-based
Conditions: ATCC 27853
Non-standard residues stand in square brackets, D forms with d. Residues, ends and D or L forms follow the SMILES beside them. *: point of attachment. Lauroyl = CCCCCCCCCCCC(=O)*

- molecule: "CCCCCCCCCCCC(=O)N[C@@H](C(=O)N[C@H](C)C(=O)N[C@H](CCCNC(=N)N)C(=O)N[C@H](CC(N)=O)C(=O)N[C@H](Cc1ccccc1)C(=O)N[C@H](CCSC)C(=O)N[C@H](CCCNC(=N)N)C(N)=O)C(C)C [Peptide 126, Lauryl-varnfmr-NH2] (Lauroyl-[dV][dA][dR][dN][dF][dM][dR]-NH2)"
  system.tested: "Pseudomonas aeruginosa ATCC 27853"
  MIC P. aeruginosa: ">64 µg/mL"
- molecule: "CCCCCCCCCCCC(=O)N[C@@H](CCCNC(=N)N)C(=O)N[C@@H](Cc1c[nH]c2ccccc12)C(=O)N[C@@H](CCCNC(=N)N)C(=O)N[C@@H](C)C(=O)N[C@H](C(=O)N[C@@H](C)C(=O)N[C@@H](CCCNC(=N)N)C(N)=O)C(C)C [Peptide 243, Lauryl-RWRAVAR-NH2] (Lauroyl-RWRAVAR-NH2)"
  system.tested: "Pseudomonas aeruginosa ATCC 27853"
  MIC P. aeruginosa: ">64 µg/mL"
